TESTED SYSTEM: human TRPA1 (Homo sapiens)
Construct: expressed in transfected cells; host or cells: Human embryonic kidney-derived 293T cells, transiently transfected with the pcDNA3.1/zeo(+) human TRPA1 plasmid
TEST METHOD NOTES: Measurement of TRPA1 antagonist activity (intracellular calcium increase, FLIPR, allylisothiocyanate stimulation)
Type: cell-based
MEASUREMENT CONDITIONS: allylisothiocyanate 20 μM stimulation, FLIPR calcium assay; read-out: antagonism hTRPA1
PROPERTY LABEL: IC50 (nM)

SMILES NOTATION: O=C(NCc1cccc(OCc2ccc(C(F)(F)F)cc2)c1)[C@@H]1CCCN1S(=O)(=O)c1nc2ccccc2s1
TESTED SYSTEM: human TRPA1 (Homo sapiens)
UNIT OF MEASURE: nM
IC50: 120

P = O=C(NCc1cccc(OCc2ccsc2)c1)[C@@H]1CCCN1S(=O)(=O)c1ccc(F)cc1
Q = COc1cccc(COc2cccc(CNC(=O)[C@@H]3CCCN3S(=O)(=O)c3ccc(F)cc3)c2)c1
Could you kindly indicate whether P or Q has the higher IC50 value? Indicate your choice by writing its label. Q

* * *

TESTED SYSTEM: human TRPA1 (Homo sapiens, UniProt O75762)
Construct: expressed in transfected cells; host or cells: Human embryonic kidney-derived 293T cells, transiently transfected with the pcDNA3.1/zeo(+) human TRPA1 plasmid
Sequence (O75762 whole entry): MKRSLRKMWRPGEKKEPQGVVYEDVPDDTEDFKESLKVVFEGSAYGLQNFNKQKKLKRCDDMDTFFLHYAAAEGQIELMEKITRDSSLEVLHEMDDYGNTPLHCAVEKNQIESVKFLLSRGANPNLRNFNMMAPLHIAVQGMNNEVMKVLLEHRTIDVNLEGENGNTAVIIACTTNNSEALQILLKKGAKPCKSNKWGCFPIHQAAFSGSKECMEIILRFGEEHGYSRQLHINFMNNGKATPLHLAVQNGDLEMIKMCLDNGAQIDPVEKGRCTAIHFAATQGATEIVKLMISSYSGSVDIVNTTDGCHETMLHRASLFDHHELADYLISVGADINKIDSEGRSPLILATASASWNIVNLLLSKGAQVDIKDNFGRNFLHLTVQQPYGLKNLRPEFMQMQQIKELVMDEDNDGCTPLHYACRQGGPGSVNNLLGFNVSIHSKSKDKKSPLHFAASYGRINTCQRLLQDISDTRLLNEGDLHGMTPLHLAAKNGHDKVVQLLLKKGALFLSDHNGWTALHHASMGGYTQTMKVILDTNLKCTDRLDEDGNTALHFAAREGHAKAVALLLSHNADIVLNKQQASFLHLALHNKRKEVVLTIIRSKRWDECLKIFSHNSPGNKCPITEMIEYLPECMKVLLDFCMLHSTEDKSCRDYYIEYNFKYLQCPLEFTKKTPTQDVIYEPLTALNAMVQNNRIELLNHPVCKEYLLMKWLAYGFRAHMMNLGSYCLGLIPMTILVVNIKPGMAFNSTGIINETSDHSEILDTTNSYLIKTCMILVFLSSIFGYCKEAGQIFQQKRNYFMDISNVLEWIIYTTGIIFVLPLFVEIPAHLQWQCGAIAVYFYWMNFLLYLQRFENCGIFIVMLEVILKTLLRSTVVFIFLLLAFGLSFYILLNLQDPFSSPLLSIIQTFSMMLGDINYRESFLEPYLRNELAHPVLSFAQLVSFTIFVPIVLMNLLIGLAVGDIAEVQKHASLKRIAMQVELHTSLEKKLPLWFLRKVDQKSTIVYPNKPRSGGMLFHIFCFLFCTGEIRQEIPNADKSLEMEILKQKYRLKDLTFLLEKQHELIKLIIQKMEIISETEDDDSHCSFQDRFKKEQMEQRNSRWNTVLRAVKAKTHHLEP
TEST METHOD NOTES: Measurement of TRPA1 antagonist activity (intracellular calcium increase, FLIPR, allylisothiocyanate stimulation)
Format: cell-based
MEASUREMENT CONDITIONS: allylisothiocyanate 20 μM stimulation, FLIPR calcium assay; read-out: antagonism hTRPA1
PROPERTY LABEL: IC50 (nM)

SMILES NOTATION: O=C(NCc1cccc(OCc2cccs2)c1)[C@@H]1CCCN1S(=O)(=O)c1ccc(F)cc1
TESTED SYSTEM: human TRPA1 (Homo sapiens, UniProt O75762)
ENDPOINT RESULT: 110

SMILES NOTATION: O=C(NCc1cccc(OCc2cncc(Cl)c2)c1)[C@@H]1CCCN1S(=O)(=O)c1ccc(F)cc1
TESTED SYSTEM: human TRPA1 (Homo sapiens, UniProt O75762)
ENDPOINT RESULT: 110

SMILES NOTATION: O=C(NCc1cccc(OCc2ccc(C(F)(F)F)cc2)c1)[C@@H]1CCCN1S(=O)(=O)c1cc2ccccc2s1
TESTED SYSTEM: human TRPA1 (Homo sapiens, UniProt O75762)
ENDPOINT RESULT: 87

SMILES NOTATION: O=C(NCc1cccc(Oc2ccc(C(F)(F)F)cc2)c1)[C@@H]1CCCN1S(=O)(=O)c1cc(F)cc(F)c1
TESTED SYSTEM: human TRPA1 (Homo sapiens, UniProt O75762)
ENDPOINT RESULT: 100
